For each entry below, report its MRT last value.
experimentNotes: Mean residence time (0 to t) in Sprague-Dawley rat at 1 mg/kg, iv measured during 2 mins to 24 hrs period post dose by LC/MS/MS method
Format: ADME, organism-based
reportedConditions: in vivo
Remember to put the unit after the number in your answer.

{"itemSmiles": "Cc1ccc(CN2CCOCC2)cc1NC(=O)c1ccc(Nc2ncc(C(F)(F)F)c(-c3ccccc3)n2)cc1", "MRT last": "1.23 h"}
{"itemSmiles": "Cc1ccc(CN2CCOCC2)cc1NC(=O)c1ccc(Nc2ncc(C(F)(F)F)c(-c3ccccn3)n2)cc1", "MRT last": "0.93 h"}

Please give MRT last, item by item, for the list that follows.
1. Cc1ccc(CN2CCN(C)CC2)cc1NC(=O)c1ccc(Nc2ncc(C(F)(F)F)c(-c3ccc(OC(F)(F)F)cc3)n2)cc1
2. Cc1ccc(CN2CCOCC2)cc1NC(=O)c1ccc(Nc2ncc(C(F)(F)F)c(-c3ccc(OC(F)(F)F)cc3)n2)cc1

["7.15 h", "4.95 h"]

---

experimentNotes: Apparent volume of distribution in Sprague-Dawley rat at 1 mg/kg, iv measured during 2 mins to 24 hrs period post dose by LC-MS/MS method
Format: ADME, organism-based
reportedConditions: in vivo, read-out: Vz
Would you kindly list Vd for each of these compounds?
Give bare numbers, in L/kg.

{"itemSmiles": "Cc1ccc(CN2CCOCC2)cc1NC(=O)c1ccc(Nc2ncc(C(F)(F)F)c(-c3ccccn3)n2)cc1", "Vd (L/kg)": 1.8}

Value sought for every listed compound: Vd.
1. Cc1ccc(CN2CCOCC2)cc1NC(=O)c1ccc(Nc2ncc(C(F)(F)F)c(-c3ccc(OC(F)(F)F)cc3)n2)cc1
2. Cc1ccc(CN2CCN(C)CC2)cc1NC(=O)c1ccc(Nc2ncc(C(F)(F)F)c(-c3ccc(OC(F)(F)F)cc3)n2)cc1
3. Cc1ccc(CN2CCOCC2)cc1NC(=O)c1ccc(Nc2ncc(C(F)(F)F)c(-c3ccccc3)n2)cc1

1. 5.88
2. 9.22
3. 4.13

---

experimentNotes: AUC (0 to t) in Sprague-Dawley rat at 1 mg/kg, iv measured during 2 mins to 24 hrs period post dose by LC-MS/MS method
Format: ADME, organism-based
Design: time 0.033-24 hr, dose 1 mg/kg, route intravenous
reportedConditions: in vivo
Would you mind telling me the reported AUC(0-t) of each entry?
Numbers only, in ng·h/mL.

Worked cases, AUC(0-t) given:
{"compound": "Cc1ccc(CN2CCOCC2)cc1NC(=O)c1ccc(Nc2ncc(C(F)(F)F)c(-c3ccc(OC(F)(F)F)cc3)n2)cc1", "AUC(0-t) (ng·h/mL)": 1960}
{"compound": "Cc1ccc(CN2CCOCC2)cc1NC(=O)c1ccc(Nc2ncc(C(F)(F)F)c(-c3ccccn3)n2)cc1", "AUC(0-t) (ng·h/mL)": 826}
{"compound": "Cc1ccc(CN2CCOCC2)cc1NC(=O)c1ccc(Nc2ncc(C(F)(F)F)c(-c3ccccc3)n2)cc1", "AUC(0-t) (ng·h/mL)": 807}
{"compound": "Cc1ccc(CN2CCN(C)CC2)cc1NC(=O)c1ccc(Nc2ncc(C(F)(F)F)c(-c3ccc(OC(F)(F)F)cc3)n2)cc1", "AUC(0-t) (ng·h/mL)": 1240}

Bench note: what AUC(0-t) did CS(=O)(=O)c1ccc(C(=O)Nc2ccc(Cl)c(-c3ccccn3)c2)c(Cl)c1 [VISMODEGIB] show?
2460
